- system.tested: T1, cynomolgus IL12Rβ1 (cynomolgus, UniProt A0A2K5VWV1 24-662)
- T1 construct: whole, on cells; also called cyno IL12Rβ1; Cyno IL-12Rβ1
- assay.remarks: FACS, 1 µg/ml Fab, Jurkat cells expressing cyno IL12Rβ1
Below, each entry is listed with its recorded MFI (mean fluorescent intensity).
The answer should be a number; do not append a unit.

Illustrative cases are given below, each with its answer.
MOR05281 Fab (Fab, V domains shown) VH: QVQLKESGPALVKPTQTLTLTCTFSGFSLSTRGVGVSWIRQPPGKALEWLALIYWDEDKYYSTSLKTRLTISKDTSKNQVVLTMTNMDPVDTATYYCARYQSGYYYNNDGWGVDIWGQGTLVTVSS VL: DIQMTQSPSSLSASVGDRVTITCRASQSISSWLNWYQQKPGKAPKLLIYAASSLQSGVPSRFSGSGSGTDFTLTISSLQPEDFATYYCQQYYAFPHTFGQGTKVEIKR: 2
MOR05286 Fab (Fab, V domains shown, also called MOR5286) VH: QVQLKESGPALVKPTQTLTLTCTFSGFSLSTSGMGVSWIRQPPGKALEWLALIDWTDDKYYSTSLKTRLTISKDTSKNQVVLTMTNMDPVDTATYYCARTVGKGLYRVDNWGQGTLVTVSS VL: DIELTQPPSVSVAPGQTARISCSGDNLGSKFAYWYQQKPGQAPVLVIYDDSKRPSGIPERFSGSNSGNTATLTISGTQAEDEADYYCQSWDSSSGNDVFGGGTKLTVLG: 249

### Prompt // returns reported MFI (mean fluorescent intensity) for input MOR05278 Fab (Fab, V domains shown) VH: QVQLVESGGGLVQPGGSLRLSCAASGFTFSSYGMSWVRQAPGKGLEWVSYIEPKLFWYATFYAASVKGRFTISRDNSKNTLYLQMNSLRAEDTAVYYCARNDFMEPAYFALWGQGTLVTVSS VL: DIELTQPPSVSVAPGQTARISCSGDNLGSYYAYWYQQKPGQAPVGVIYDDSERPSGIPERFSGSNSGNTATLTISGTQAEDEADYYCSSYTYSKNNVFGGGTKLTVLG
### Response 4

### Prompt Also, MOR05271 Fab (Fab, V domains shown) VH: QVQLKESGPALVKPTQTLTLTCTFSGFSLSTSTMGVSWIRQPPGKALEWLAWIYWDDDKDYSTSLKSRLTISKDTSKNQVVLTMTNMDPVDTATYYCARANPDLGYFDYWGQGTLVTVSS VL: DIALTQPASVSGSPGQSITISCTGTSSDLGESNYVSWYQQHPGKAPKVMIYDVNKRPSGVSNRFSGSKSGNTASLTISGLQAEDEADYYCGSYDEEDNVFGGGTKLTVLG please.
### Response 3
